Cited source: the supplement of paper PMC9112550

Test system: Escherichia coli TOP10;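 further: peptides expressed intracellularly from a pBAD plasmid library in pooled LB shake-flask culture, induced with 0.3% L-arabinose, DNA abundance read by NGS, three biological replicates, DESeq2 with apeglm shrinkage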
METHOD SUMMARY: shrunken log2 fold change of peptide-encoding DNA abundance (4.5 h post-induction vs induction); higher = less antimicrobial activity (less host growth inhibition)
ASSAY CONTEXT: time post-induction: 4.5 h; library: site-saturation at positions 5, 18, 19, 20
The sequences listed here are annotated with their shrunken log2 fold change.
PROPERTY LABEL: shrunken log2 fold change

[
  {
    "ITEM SEQUENCE": "RRIRPRPPRLPRPRPRPGRKPRP",
    "RECORDED MEASUREMENT": 0.199
  },
  {
    "ITEM SEQUENCE": "RRIRGRPPRLPRPRPRPVKTPRP",
    "RECORDED MEASUREMENT": 0.0324
  },
  {
    "ITEM SEQUENCE": "RRIRSRPPRLPRPRPRPDRPPRP",
    "RECORDED MEASUREMENT": -0.0605
  },
  {
    "ITEM SEQUENCE": "RRIRWRPPRLPRPRPRPDKAPRP",
    "RECORDED MEASUREMENT": -0.00149
  },
  {
    "ITEM SEQUENCE": "RRIRQRPPRLPRPRPRPRFRPRP",
    "RECORDED MEASUREMENT": 0.0281
  },
  {
    "ITEM SEQUENCE": "RRIRIRPPRLPRPRPRPGPPPRP",
    "RECORDED MEASUREMENT": 0.221
  },
  {
    "ITEM SEQUENCE": "RRIRDRPPRLPRPRPRPANGPRP",
    "RECORDED MEASUREMENT": -0.0137
  },
  {
    "ITEM SEQUENCE": "RRIRGRPPRLPRPRPRPMGMPRP",
    "RECORDED MEASUREMENT": 0.886
  },
  {
    "ITEM SEQUENCE": "RRIRCRPPRLPRPRPRPCMDPRP",
    "RECORDED MEASUREMENT": -0.09
  },
  {
    "ITEM SEQUENCE": "RRIRVRPPRLPRPRPRPDENPRP",
    "RECORDED MEASUREMENT": -0.0618
  },
  {
    "ITEM SEQUENCE": "RRIRQRPPRLPRPRPRPKQHPRP",
    "RECORDED MEASUREMENT": -0.239
  },
  {
    "ITEM SEQUENCE": "RRIRIRPPRLPRPRPRPNTAPRP",
    "RECORDED MEASUREMENT": -0.0523
  },
  {
    "ITEM SEQUENCE": "RRIRIRPPRLPRPRPRPRYAPRP",
    "RECORDED MEASUREMENT": -0.14
  },
  {
    "ITEM SEQUENCE": "RRIRNRPPRLPRPRPRPSYYPRP",
    "RECORDED MEASUREMENT": -0.877
  },
  {
    "ITEM SEQUENCE": "RRIRRRPPRLPRPRPRPHTYPRP",
    "RECORDED MEASUREMENT": 0.573
  },
  {
    "ITEM SEQUENCE": "RRIRSRPPRLPRPRPRPQMEPRP",
    "RECORDED MEASUREMENT": 0.0832
  },
  {
    "ITEM SEQUENCE": "RRIRDRPPRLPRPRPRPYCRPRP",
    "RECORDED MEASUREMENT": 0.0533
  },
  {
    "ITEM SEQUENCE": "RRIRPRPPRLPRPRPRPFHRPRP",
    "RECORDED MEASUREMENT": -0.0334
  },
  {
    "ITEM SEQUENCE": "RRIRGRPPRLPRPRPRPEWAPRP",
    "RECORDED MEASUREMENT": 1.07
  },
  {
    "ITEM SEQUENCE": "RRIRHRPPRLPRPRPRPWRNPRP",
    "RECORDED MEASUREMENT": 0.00611
  },
  {
    "ITEM SEQUENCE": "RRIRSRPPRLPRPRPRPVCLPRP",
    "RECORDED MEASUREMENT": 0.0459
  },
  {
    "ITEM SEQUENCE": "RRIRIRPPRLPRPRPRPKCEPRP",
    "RECORDED MEASUREMENT": 0.07
  },
  {
    "ITEM SEQUENCE": "RRIRWRPPRLPRPRPRPFVTPRP",
    "RECORDED MEASUREMENT": -0.215
  },
  {
    "ITEM SEQUENCE": "RRIRGRPPRLPRPRPRPFGMPRP",
    "RECORDED MEASUREMENT": 0.228
  },
  {
    "ITEM SEQUENCE": "RRIRCRPPRLPRPRPRPMSKPRP",
    "RECORDED MEASUREMENT": -0.5
  },
  {
    "ITEM SEQUENCE": "RRIRDRPPRLPRPRPRPHEIPRP",
    "RECORDED MEASUREMENT": -0.0115
  },
  {
    "ITEM SEQUENCE": "RRIRPRPPRLPRPRPRPCHFPRP",
    "RECORDED MEASUREMENT": -0.265
  },
  {
    "ITEM SEQUENCE": "RRIRPRPPRLPRPRPRPEANPRP",
    "RECORDED MEASUREMENT": 0.473
  },
  {
    "ITEM SEQUENCE": "RRIRLRPPRLPRPRPRPPVLPRP",
    "RECORDED MEASUREMENT": 0.0296
  },
  {
    "ITEM SEQUENCE": "RRIRGRPPRLPRPRPRPRNLPRP",
    "RECORDED MEASUREMENT": -0.0805
  },
  {
    "ITEM SEQUENCE": "RRIRWRPPRLPRPRPRPMGRPRP",
    "RECORDED MEASUREMENT": -0.012
  },
  {
    "ITEM SEQUENCE": "RRIRRRPPRLPRPRPRPDFGPRP",
    "RECORDED MEASUREMENT": 0.0803
  }
]
